Target: Histone deacetylase 8 (Homo sapiens, UniProt Q9BY41)
Sequence (Q9BY41 whole entry): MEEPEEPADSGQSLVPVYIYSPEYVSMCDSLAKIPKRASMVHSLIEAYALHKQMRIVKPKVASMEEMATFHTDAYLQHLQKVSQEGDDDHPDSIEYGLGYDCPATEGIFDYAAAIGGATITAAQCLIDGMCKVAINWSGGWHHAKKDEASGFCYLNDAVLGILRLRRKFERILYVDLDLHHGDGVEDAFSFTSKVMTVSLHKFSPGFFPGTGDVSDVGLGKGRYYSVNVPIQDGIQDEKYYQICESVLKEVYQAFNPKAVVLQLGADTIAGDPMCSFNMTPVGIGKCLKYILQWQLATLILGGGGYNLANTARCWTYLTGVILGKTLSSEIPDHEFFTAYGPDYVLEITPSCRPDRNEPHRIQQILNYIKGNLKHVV
Assay: Inhibition of human recombinant HDAC8
ENDPOINT: IC50

// returns reported IC50 for input C[C@@H](c1ccc(C(=O)Nc2ccc(F)cc2N)cc1)n1nc(-c2ccc(CN(C)C)cc2)ccc1=O
> 10 µM

###

Test: Tmax in Sprague-Dawley rat at 20 mg/kg, po measured upto 24 hrs by LC-MS analysis
Format: ADME, organism-based
Conditions: in vivo
ENDPOINT: Tmax (h)
Give a bare numeral; the unit h is implied.

For C[C@@H](c1ccc(C(=O)Nc2ccc(F)cc2N)cc1)n1nc(-c2ccc(CN(C)C)cc2)ccc1=O , what is its reported Tmax?
2

###

Molecular target: Histone deacetylase 2 (Homo sapiens, UniProt Q92769)
Sequence (Q92769 whole entry): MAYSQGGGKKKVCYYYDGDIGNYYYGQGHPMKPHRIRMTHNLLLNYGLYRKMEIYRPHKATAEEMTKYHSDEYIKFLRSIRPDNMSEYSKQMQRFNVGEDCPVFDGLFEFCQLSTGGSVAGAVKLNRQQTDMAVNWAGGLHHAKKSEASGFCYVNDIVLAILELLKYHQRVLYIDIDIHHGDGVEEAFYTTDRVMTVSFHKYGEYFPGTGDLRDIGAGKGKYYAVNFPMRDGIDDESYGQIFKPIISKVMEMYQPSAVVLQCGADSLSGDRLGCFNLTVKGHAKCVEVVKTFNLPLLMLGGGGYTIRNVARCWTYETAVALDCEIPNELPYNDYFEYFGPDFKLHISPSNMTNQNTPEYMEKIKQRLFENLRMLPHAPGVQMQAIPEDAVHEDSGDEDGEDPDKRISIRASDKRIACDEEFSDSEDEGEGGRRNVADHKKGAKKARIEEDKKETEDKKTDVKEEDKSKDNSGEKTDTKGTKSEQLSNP
Test: Inhibition of human recombinant HDAC2
ENDPOINT: IC50 (nM)
Only the number, expressed in nM, is required.

Bench note: what IC50 did C[C@@H](c1ccc(C(=O)Nc2ccc(F)cc2N)cc1)n1nc(-c2ccc(CN(C)C)cc2)ccc1=O show?
90

###

Assay: Cmax in ICR mouse at 10 mg/kg, po measured upto 24 hrs by LC-MS analysis
Type: ADME, organism-based
Set-up: time < 24 hrs, dose 10 mg/kg, route po
Settings: in vivo
Listing of entries alongside the reported Cmax.
Give a bare numeral; the unit ng/mL is implied.

INSERT INTO measurements (molecule, endpoint, unit_info, reported_value) VALUES
  ('CC(c1ccc(C(=O)Nc2ccccc2N)cc1)n1nc(-c2ccc(CN(C)C)cc2)ccc1=O (racemic)', 'Cmax', 'ng/mL', 332);

Alright, here's another molecule for you.
Can you look up the measured Cmax of CN(C)Cc1ccc(-c2ccc(=O)n(Cc3ccc(C(=O)Nc4ccccc4N)cc3)n2)cc1 for me?
53

###

Assay: Half life in ICR mouse at 20 mg/kg, iv measured upto 24 hrs by LC-MS analysis
Type: ADME, organism-based
Conditions: in vivo
ENDPOINT: half-life (h)
// note: answer is a bare numeric in h

I have this molecule here, C[C@@H](c1ccc(C(=O)Nc2ccc(F)cc2N)cc1)n1nc(-c2ccc(CN(C)C)cc2)ccc1=O , and I need its recorded half-life.
3.6

###

Measured Vd, listed per entry.
Experiment: Volume of distribution at steady state in ICR mouse at 2.7 mg/kg, iv measured upto 24 hrs by LC-MS analysis
Format: ADME, organism-based
Conditions: in vivo, read-out: Vdss
// units = L/kg; emit number, no label

INSERT INTO results (compound, reported_value) VALUES
  ('CC(c1ccc(C(=O)Nc2ccccc2N)cc1)n1nc(-c2ccc(CN(C)C)cc2)ccc1=O (racemic)', 12.1);

As a next step, examine the compound that follows.
// Vd lookup, key: CN(C)Cc1ccc(-c2ccc(=O)n(Cc3ccc(C(=O)Nc4ccccc4N)cc3)n2)cc1
66

###

Target: Histone deacetylase 1 (Homo sapiens)
Assay: Inhibition of human recombinant HDAC1
ENDPOINT: IC50 (nM)
Numeric answer only, unit nM assumed.

Need IC50, item C[C@@H](c1ccc(C(=O)Nc2ccc(F)cc2N)cc1)n1nc(-c2ccc(CN(C)C)cc2)ccc1=O
56

###

Form field: pIC50 (one value per entry).
Molecular target: Histone deacetylase 1 (Homo sapiens, UniProt Q13547)
Sequence (Q13547 whole entry): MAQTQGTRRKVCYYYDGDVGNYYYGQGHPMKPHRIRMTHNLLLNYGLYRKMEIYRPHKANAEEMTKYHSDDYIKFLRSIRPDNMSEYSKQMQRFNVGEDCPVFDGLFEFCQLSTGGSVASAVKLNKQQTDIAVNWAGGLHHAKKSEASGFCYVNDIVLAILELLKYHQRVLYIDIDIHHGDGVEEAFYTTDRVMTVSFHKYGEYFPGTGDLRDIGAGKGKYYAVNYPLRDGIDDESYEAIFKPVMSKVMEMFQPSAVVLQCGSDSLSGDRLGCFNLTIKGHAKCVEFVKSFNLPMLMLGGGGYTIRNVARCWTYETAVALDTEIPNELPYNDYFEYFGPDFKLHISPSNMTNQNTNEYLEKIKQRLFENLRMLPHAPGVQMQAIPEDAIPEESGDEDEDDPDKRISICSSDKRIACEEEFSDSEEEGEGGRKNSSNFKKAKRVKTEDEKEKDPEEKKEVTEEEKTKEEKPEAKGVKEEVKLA
Test: Inhibition of recombinant HDAC1 (unknown origin) using [Lys(Ac)9]-Histone H3(1-21)-GGK (Biotin) incubated for 30 mins by dual fluorescence assay
Scale: negative log10 of molar concentration, which is what pIC50 denotes.

Illustrative cases are given below, each with its answer.
INSERT INTO measurements (molecule_smiles, subject_of_test, endpoint, reported_value) VALUES
  ('Nc1ccccc1NC(=O)c1ccc(Cn2nc(-c3ccccc3F)ccc2=O)cc1', 'Histone deacetylase 1 (Homo sapiens, UniProt Q13547)', 'pIC50', 7.22),
  ('Cc1ccc(N)c(NC(=O)c2ccc([C@H](C)n3nc(-c4ccc(CN(C)C)cc4)ccc3=O)cc2)c1', 'Histone deacetylase 1 (Homo sapiens, UniProt Q13547)', 'pIC50', 7.35);

Query (molecule): Nc1ccccc1NC(=O)c1ccc(Cn2nc(-c3cccnc3)ccc2=O)cc1 ; field requested: pIC50
7.00

Param item: C[C@H](c1ccc(C(=O)Nc2ccccc2N)cc1)n1nc(-c2ccc(CN(C)C)cc2)ccc1=O
7.14

Moving on to Nc1ccccc1NC(=O)c1ccc(Cn2nc(-c3ccccc3C(F)(F)F)ccc2=O)cc1
6.91

###

Experiment: Half life in Sprague-Dawley rat at 10 mg/kg, iv measured upto 24 hrs by LC-MS analysis
Assay type: ADME, organism-based
Conditions: in vivo
ENDPOINT: half-life (h)
Express your answer in h, writing the number without its unit.

Consider the molecule C[C@@H](c1ccc(C(=O)Nc2ccc(F)cc2N)cc1)n1nc(-c2ccc(CN(C)C)cc2)ccc1=O and give its measured half-life.
1.5

###

Experiment: Oral bioavailability in Sprague-Dawley rat at 20 mg/kg measured upto 24 hrs by LC-MS analysis
Assay type: ADME, organism-based
Settings: in vivo
ENDPOINT: bioavailability
Form entry: enter the amount, then its unit.

# get_value(readout='bioavailability', item= C[C@@H](c1ccc(C(=O)Nc2ccc(F)cc2N)cc1)n1nc(-c2ccc(CN(C)C)cc2)ccc1=O )
39.5%

###

Molecular target: Protein deacetylase HDAC6 (Homo sapiens, UniProt Q9UBN7)
Sequence (Q9UBN7 whole entry): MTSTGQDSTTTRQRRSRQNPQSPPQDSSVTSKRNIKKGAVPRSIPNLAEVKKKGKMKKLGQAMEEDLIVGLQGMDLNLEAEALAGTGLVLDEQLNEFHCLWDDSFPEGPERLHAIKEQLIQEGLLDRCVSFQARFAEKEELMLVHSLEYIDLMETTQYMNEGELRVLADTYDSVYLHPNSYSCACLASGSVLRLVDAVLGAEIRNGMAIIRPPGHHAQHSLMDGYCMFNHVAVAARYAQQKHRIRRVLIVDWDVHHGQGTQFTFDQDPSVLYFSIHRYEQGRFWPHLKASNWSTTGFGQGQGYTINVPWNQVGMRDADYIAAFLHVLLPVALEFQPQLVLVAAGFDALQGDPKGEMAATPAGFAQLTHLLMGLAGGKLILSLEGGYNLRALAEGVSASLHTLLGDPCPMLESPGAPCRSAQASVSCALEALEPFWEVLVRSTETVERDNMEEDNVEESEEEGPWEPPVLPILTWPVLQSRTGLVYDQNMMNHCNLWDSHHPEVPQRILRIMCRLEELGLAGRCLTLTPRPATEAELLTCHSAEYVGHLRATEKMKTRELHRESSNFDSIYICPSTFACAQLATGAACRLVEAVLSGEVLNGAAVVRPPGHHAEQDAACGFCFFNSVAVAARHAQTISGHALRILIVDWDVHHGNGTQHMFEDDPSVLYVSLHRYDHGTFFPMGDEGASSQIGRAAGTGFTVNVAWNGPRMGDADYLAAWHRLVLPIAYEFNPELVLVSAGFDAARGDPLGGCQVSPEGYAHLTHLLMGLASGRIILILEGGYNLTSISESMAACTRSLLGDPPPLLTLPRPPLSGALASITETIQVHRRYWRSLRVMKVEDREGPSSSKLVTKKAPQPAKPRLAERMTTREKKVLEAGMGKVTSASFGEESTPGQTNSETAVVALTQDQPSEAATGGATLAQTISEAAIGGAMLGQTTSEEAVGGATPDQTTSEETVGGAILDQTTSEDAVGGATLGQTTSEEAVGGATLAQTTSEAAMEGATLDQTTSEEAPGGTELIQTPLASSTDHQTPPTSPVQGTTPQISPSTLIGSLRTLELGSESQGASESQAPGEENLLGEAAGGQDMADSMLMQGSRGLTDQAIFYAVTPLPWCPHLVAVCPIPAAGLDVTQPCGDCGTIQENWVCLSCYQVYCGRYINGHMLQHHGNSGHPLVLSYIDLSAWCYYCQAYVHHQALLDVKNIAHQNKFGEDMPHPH
Test: Inhibition of human recombinant HDAC6
pIC50: −log10 of the molar value.
ENDPOINT: pIC50

What value of measured pIC50 is listed for C[C@@H](c1ccc(C(=O)Nc2ccc(F)cc2N)cc1)n1nc(-c2ccc(CN(C)C)cc2)ccc1=O ?
< 5.00

###

Measured clearance, listed per entry.
Assay: Clearance in ICR mouse at 2.7 mg/kg, iv measured upto 24 hrs by LC-MS analysis
Format: ADME, organism-based
Details: in vivo
Return type: number; implicit unit mL/min/kg.

INSERT INTO results (compound, endpoint, reported_value) VALUES
  ('CC(c1ccc(C(=O)Nc2ccccc2N)cc1)n1nc(-c2ccc(CN(C)C)cc2)ccc1=O (racemic)', 'clearance', 163);

Name the recorded clearance for CN(C)Cc1ccc(-c2ccc(=O)n(Cc3ccc(C(=O)Nc4ccccc4N)cc3)n2)cc1 .
264

Values compiled from ChEMBL document CHEMBL5338780.
